- assayed target: Bcl-2 protein (Recombinant Human Bcl-2 Protein) (Homo sapiens)
- Construct: purchased Novus NBP2-34889
- test name: Binding evaluation of mixture library compounds to Bcl-2 using AS-MS (affinity selection mass spectrometry)
- conditions used: AS-MS, mixture library, Bcl-2; replicate n = 2; ASMS Ratio(%)=(A−C)/B×100
Quick list: ASMS ratio (%) n = 2 per entry.

compound	scale unit	ASMS ratio (%) n = 2
CCOc1cncc(-c2ccc(CN3CCN(c4ccc(C(=O)NS(=O)(=O)c5ccc(NCCSc6ccccc6)c([N+](=O)[O-])c5)cc4)CC3)c(CC)c2)c1 [B2Q050-01]	%	0.0
CCOc1cccc(-c2ccc(C(=O)N3CCN(c4ccc(C(=O)NS(=O)(=O)c5ccc(NCCSc6ccccc6)c([N+](=O)[O-])c5)nn4)CC3)cc2C)c1 [B2Q003-01]	%	6.9
CCOc1cccc(-c2ccc(C(=O)N3CCN(c4ccc(C(=O)NS(C)(=O)=O)cc4)CC3)cc2F)c1 [B2I027-01]	%	0.0
CCOc1cccc(-c2ccccc2CCC(=O)N2CCN(c3ccc(C(=O)NS(=O)(=O)c4ccc(NCCSc5ccccc5)c([N+](=O)[O-])c4)cc3)CC2)c1 [B2Q033-01]	%	−2.3
CCOc1cccc(-c2ccc(C(=O)N3CCN(c4ccc(C(=O)NS(=O)(=O)c5ccc(NCCSc6ccccc6)c([N+](=O)[O-])c5)nn4)CC3)cc2F)c1 [B2Q005-01]	%	15.3
CCOc1cccc(-c2ccc(CN3CCN(c4ccc(C(=O)NS(=O)(=O)c5ccc(NCCSc6ccccc6)c([N+](=O)[O-])c5)cc4)CC3)cc2F)c1 [B2Q051-01]	%	2.1

* * *

- assayed target: Bcl-2 protein (Recombinant Human Bcl-2 Protein) (Homo sapiens, UniProt P10415)
- Construct: purchased Novus NBP2-34889
- Sequence (P10415 whole entry): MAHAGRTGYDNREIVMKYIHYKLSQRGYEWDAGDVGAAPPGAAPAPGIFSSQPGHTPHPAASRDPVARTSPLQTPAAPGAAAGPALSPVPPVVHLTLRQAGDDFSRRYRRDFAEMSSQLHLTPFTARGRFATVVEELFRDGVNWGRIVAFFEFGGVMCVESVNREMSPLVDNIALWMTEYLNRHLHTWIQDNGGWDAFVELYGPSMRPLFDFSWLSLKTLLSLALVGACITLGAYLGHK
- test name: Binding evaluation of mixture library compounds to Bcl-2 using AS-MS (affinity selection mass spectrometry)
- conditions used: AS-MS, mixture of 1200 compounds, Bcl-2; ASMS Ratio(%)=(A−C)/B×100; replicate n = 2
Quick list: ASMS ratio (%) n = 2 per entry.
metric: ASMS ratio (%) n = 2

smiles structure	assayed target	quantitative readout
CCOc1cccc(-c2cc(C(=O)N3CCN(c4ccc(C(=O)NCC(F)(F)F)cc4)CC3)cc(C(C)(C)C)c2)c1	Bcl-2 protein (Recombinant Human Bcl-2 Protein) (Homo sapiens, UniProt P10415)	1.9
CCOc1cncc(-c2csc(CN3CCN(c4ccc(C(=O)NCC56CC7CC(CC(C7)C5)C6)cc4)CC3)c2)c1	Bcl-2 protein (Recombinant Human Bcl-2 Protein) (Homo sapiens, UniProt P10415)	3.3
CCOc1cccc(-c2ccc(C(=O)N3CCN(c4ccc(C(=O)NCC56CC7CC(CC(C7)C5)C6)nn4)CC3)cc2C)c1	Bcl-2 protein (Recombinant Human Bcl-2 Protein) (Homo sapiens, UniProt P10415)	5.8
CCOc1cccc(-c2ccc(CN3CCN(c4ccc(C(=O)NCC56CC7CC(CC(C7)C5)C6)cc4)CC3)cc2C)c1	Bcl-2 protein (Recombinant Human Bcl-2 Protein) (Homo sapiens, UniProt P10415)	2.5
CCOc1cccc(C#Cc2cncc(C(=O)N3CCN(c4ccc(C(=O)NCC(F)(F)F)cc4)CC3)c2)c1	Bcl-2 protein (Recombinant Human Bcl-2 Protein) (Homo sapiens, UniProt P10415)	0.0
CCOc1cccc(-c2ccc(C(=O)N3CCN(c4ccc(C(=O)NCC(F)(F)F)nn4)CC3)cc2C)c1	Bcl-2 protein (Recombinant Human Bcl-2 Protein) (Homo sapiens, UniProt P10415)	−0.2
CCOc1cncc(-c2csc(C(=O)N3CCN(c4ccc(C(=O)NCC(F)(F)F)cc4)CC3)c2)c1	Bcl-2 protein (Recombinant Human Bcl-2 Protein) (Homo sapiens, UniProt P10415)	0.0
CCOc1cccc(-c2csc(C(=O)N3CCN(c4ccc(C(=O)NCC56CC7CC(CC(C7)C5)C6)cc4)CC3)c2)c1	Bcl-2 protein (Recombinant Human Bcl-2 Protein) (Homo sapiens, UniProt P10415)	0.8
CCOc1cncc(-c2ccc(C(=O)N3CCN(c4ccc(C(=O)NCC56CC7CC(CC(C7)C5)C6)cc4)CC3)cc2C)c1	Bcl-2 protein (Recombinant Human Bcl-2 Protein) (Homo sapiens, UniProt P10415)	−2.9
CCOc1cncc(-c2cc(CN3CCN(c4ccc(C(=O)NCC(F)(F)F)nn4)CC3)cc(OCC)c2)c1	Bcl-2 protein (Recombinant Human Bcl-2 Protein) (Homo sapiens, UniProt P10415)	0.0
CCOc1cccc(-c2csc(C(=O)N3CCN(c4ccc(C(=O)NCC(F)(F)F)cc4)CC3)c2)c1	Bcl-2 protein (Recombinant Human Bcl-2 Protein) (Homo sapiens, UniProt P10415)	1.3
CCOc1cncc(-c2cc(C(=O)N3CCN(c4ccc(C(=O)NCC(F)(F)F)cc4)CC3)cc(C(C)(C)C)c2)c1	Bcl-2 protein (Recombinant Human Bcl-2 Protein) (Homo sapiens, UniProt P10415)	−1.8
CCOc1cccc(-c2cc(CN3CCN(c4ccc(C(=O)NCC(F)(F)F)nn4)CC3)cc(OC(F)(F)F)c2)c1	Bcl-2 protein (Recombinant Human Bcl-2 Protein) (Homo sapiens, UniProt P10415)	1.0
CCOc1cccc(-c2ccc(C(=O)N3CCN(c4ccc(C(=O)NCC(F)(F)F)cc4)CC3)c3ccccc23)c1	Bcl-2 protein (Recombinant Human Bcl-2 Protein) (Homo sapiens, UniProt P10415)	4.5
